Hello, the source for this data is the kinase profiling compilation of Christmann-Franck et al. (2016), in case you need it.

tested on: FLT3 (human), P36888 [D835Y]; assay: KINOMEscan competition binding; conditions: compound 10.0 µM
Note to self: kinase still bound, per cent of control under 20% means YES, ties and anything higher get NO.

Query: Is 20% strictly greater than the compound's reported kinase still bound, per cent of control? compound: O=C1NC(=O)/C(=C/c2c[nH]c(=O)c(-c3ccc(N4CCNCC4)nc3)c2)S1
Response: NO

Query: Is 20% strictly greater than the compound's reported kinase still bound, per cent of control? compound: CN1CCN(c2ccc(C(=O)Nc3ncc4c(n3)N(C)c3ccccc3C(=O)N4C)cc2)CC1
Response: NO

Query: Is 20% strictly greater than the compound's reported kinase still bound, per cent of control? compound: COc1cc(N2CCN(C)CC2)ccc1Nc1ncc2c(n1)N(C1CCCC1)C(C)CC(=O)N2 (stereo unspecified)
Response: NO

Query: Is 20% strictly greater than the compound's reported kinase still bound, per cent of control? compound: COc1cc(N2CCC(O)CC2)ccc1Nc1ncc2c(n1)N1CCc3cccc(c31)C(=O)N2C
Response: NO

Query: Is 20% strictly greater than the compound's reported kinase still bound, per cent of control? compound: CS(=O)(=O)Nc1ccc(-c2cncc(/C=C3\SC(=N)NC3=O)c2)cc1
Response: YES

Query: Is 20% strictly greater than the compound's reported kinase still bound, per cent of control? compound: COc1cc(N2CCN(C)CC2)ccc1Nc1ncc2c(n1)N(C)c1ccccc1N(C)C2=O
Response: NO

Query: Is 20% strictly greater than the compound's reported kinase still bound, per cent of control? compound: N=C1NC(=O)/C(=C/c2ccc(-c3cncc4ccccc34)o2)S1
Response: YES

Query: Is 20% strictly greater than the compound's reported kinase still bound, per cent of control? compound: N=C1NC(=O)/C(=C/c2c[nH]c(=O)c(-c3ccc(N4CCNCC4)nc3)c2)S1
Response: NO

Query: Is 20% strictly greater than the compound's reported kinase still bound, per cent of control? compound: COc1cc(N2CCN(C)CC2)ccc1Nc1ncc2c(n1)N(C)c1sccc1C(=O)N2C
Response: NO

Query: Is 20% strictly greater than the compound's reported kinase still bound, per cent of control? compound: CS(=O)(=O)Nc1ccc(-c2ncc(/C=C3\SC(=N)NC3=O)s2)cc1
Response: YES

Query: Is 20% strictly greater than the compound's reported kinase still bound, per cent of control? compound: N=C1NC(=O)/C(=C/c2ccc(-c3csc4ccccc34)o2)S1
Response: YES

Query: Is 20% strictly greater than the compound's reported kinase still bound, per cent of control? compound: CN1C(=O)[C@H]2CCC[C@H]2N(C2CCCC2)c2nc(Nc3ccc(C(N)=O)cc3)ncc21
Response: YES

Query: Is 20% strictly greater than the compound's reported kinase still bound, per cent of control? compound: N=C1NC(=O)/C(=C/c2ccc(-c3cnc4ccccc4c3)o2)S1
Response: YES

Query: Is 20% strictly greater than the compound's reported kinase still bound, per cent of control? compound: CN1C(=O)c2ccccc2N(C)c2nc(NS(=O)(=O)c3ccc(N)cc3)ncc21
Response: NO

Query: Is 20% strictly greater than the compound's reported kinase still bound, per cent of control? compound: CN1C(=O)c2ccccc2N(C)c2nc(Nc3ccc(N4CCC(O)CC4)cc3)ncc21
Response: NO

Query: Is 20% strictly greater than the compound's reported kinase still bound, per cent of control? compound: O=C1NC(=S)S/C1=C\c1ccc(-c2cncc3ccccc23)o1
Response: YES

Query: Is 20% strictly greater than the compound's reported kinase still bound, per cent of control? compound: COc1cc(N2CCN(C)CC2)ccc1Nc1ncc2c(n1)N(c1ccccc1)CCC(=O)N2
Response: YES

Query: Is 20% strictly greater than the compound's reported kinase still bound, per cent of control? compound: COc1cc(N2CCN(C)CC2)ccc1Nc1ncc2c(n1)N(C(C)C)c1ccccc1C(=O)N2
Response: YES

Query: Is 20% strictly greater than the compound's reported kinase still bound, per cent of control? compound: CC(C)Oc1cc(N2CCN(C)CC2)ccc1Nc1ncc2c(n1)N(C)c1ccccc1C(=O)N2
Response: YES

---

Answer each item with its documented kinase still bound, per cent of control.
biological target: PIM1 (human) (UniProt P11309); assay: KINOMEscan competition binding; settings: compound 10.0 µM
Sequence (P11309 whole entry, looked up): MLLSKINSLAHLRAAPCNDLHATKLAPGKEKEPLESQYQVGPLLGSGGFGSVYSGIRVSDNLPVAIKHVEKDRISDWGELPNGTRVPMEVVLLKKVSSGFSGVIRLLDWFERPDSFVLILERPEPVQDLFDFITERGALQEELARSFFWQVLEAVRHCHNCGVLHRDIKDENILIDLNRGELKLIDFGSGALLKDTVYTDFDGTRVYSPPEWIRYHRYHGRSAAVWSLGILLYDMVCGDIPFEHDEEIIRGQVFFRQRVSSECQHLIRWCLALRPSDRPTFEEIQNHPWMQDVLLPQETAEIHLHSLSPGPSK
I only need the number, in %, no unit after it.

Query: Would you mind telling me what kinase still bound, per cent of control value was observed for CS(=O)(=O)Nc1ccc(-c2cccc(/C=C3\SC(=N)NC3=O)n2)cc1 ?
Response: 23

Query: Would you mind telling me what kinase still bound, per cent of control value was observed for O=C1NC(=O)/C(=C/c2c[nH]c(=O)c(-c3ccc(N4CCNCC4)nc3)c2)S1 ?
Response: 0.95

Query: Would you mind telling me what kinase still bound, per cent of control value was observed for NC1=N/C(=C\c2ccc(-c3ccc(S(N)(=O)=O)cc3)o2)C(=O)N1 ?
Response: 9.5

Query: Would you mind telling me what kinase still bound, per cent of control value was observed for NS(=O)(=O)c1ccc(-c2ccc(/C=C3\SC(=O)NC3=O)o2)cc1 ?
Response: 4

Query: Would you mind telling me what kinase still bound, per cent of control value was observed for CN1C(=O)[C@H]2CCC[C@H]2N(C2CCCC2)c2nc(Nc3ccc(C(N)=O)cc3)ncc21 ?
Response: 6.8

Query: Would you mind telling me what kinase still bound, per cent of control value was observed for NS(=O)(=O)c1ccc(-c2cccc(/C=C3\SC(=O)NC3=O)c2)cc1 ?
Response: 4.2

Query: Would you mind telling me what kinase still bound, per cent of control value was observed for O=C1NC(=O)/C(=C/c2ccc(-c3ccc(F)cc3O)o2)S1 ?
Response: 2.7

Query: Would you mind telling me what kinase still bound, per cent of control value was observed for COc1cc(C(N)=O)ccc1-c1ccc(/C=C2\SC(=N)NC2=O)o1 ?
Response: 3.4

Query: Would you mind telling me what kinase still bound, per cent of control value was observed for CCN1CCN(Cc2cc(NC(=O)c3cccc4cc(-c5ccc(/C=C6\SC(=O)NC6=O)o5)ccc34)cc(C(F)(F)F)c2)CC1 ?
Response: 11

Query: Would you mind telling me what kinase still bound, per cent of control value was observed for CN1C(=N)NC(=O)/C1=C/c1ccc(-c2ccc(S(N)(=O)=O)cc2)o1 ?
Response: 21

Query: Would you mind telling me what kinase still bound, per cent of control value was observed for N=C1NC(=O)/C(=C/c2cccc(-c3ccc(S(N)(=O)=O)cc3)c2)S1 ?
Response: 16

Query: Would you mind telling me what kinase still bound, per cent of control value was observed for N=C1NC(=O)/C(=C/c2c[nH]c(=O)c(-c3ccc(S(N)(=O)=O)cc3)c2)S1 ?
Response: 16

Query: Would you mind telling me what kinase still bound, per cent of control value was observed for N=C1NC(=O)/C(=C/c2c[nH]c(=O)c(-c3ccc(N4CCNCC4)nc3)c2)S1 ?
Response: 4

Query: Would you mind telling me what kinase still bound, per cent of control value was observed for CN1CCN(c2ccc(C(=O)Nc3ncc4c(n3)N(C)c3ccccc3C(=O)N4C)cc2)CC1 ?
Response: 100

Query: Would you mind telling me what kinase still bound, per cent of control value was observed for NS(=O)(=O)c1ccc(-c2ccc(/C=C3\SC(=S)NC3=O)o2)cc1 ?
Response: 1.8

Query: Would you mind telling me what kinase still bound, per cent of control value was observed for Cc1cn(-c2cc(NC(=O)c3cccc4cc(-c5ccc(/C=C6\SC(=N)NC6=O)o5)ccc34)cc(C(F)(F)F)c2)cn1 ?
Response: 1.8

Query: Would you mind telling me what kinase still bound, per cent of control value was observed for CN(C)C1=NC(=O)/C(=C/c2ccc(-c3ccc(S(N)(=O)=O)cc3)o2)S1 ?
Response: 3.5

Query: Would you mind telling me what kinase still bound, per cent of control value was observed for N=C1NC(=O)/C(=C/c2ccc(-c3cnc4ccccc4c3)o2)S1 ?
Response: 8.3

Query: Would you mind telling me what kinase still bound, per cent of control value was observed for N=C1NC(=O)/C(=C/c2ccc(-c3ccccc3O)o2)S1 ?
Response: 1.4

Query: Would you mind telling me what kinase still bound, per cent of control value was observed for CS(=O)(=O)Nc1ccc(-c2ccc(/C=C3\SC(=N)NC3=O)o2)cc1 ?
Response: 2.9

---

target: RIOK3 (human); assay: KINOMEscan competition binding; conditions: compound 10.0 µM
Note to self: kinase still bound, per cent of control under 30% means true, ties and anything higher get false.

Query: Is 30% strictly greater than the molecule's reported kinase still bound, per cent of control? molecule: CN1C(=O)[C@H]2CCC[C@H]2N(C2CCCC2)c2nc(Nc3ccc4ncccc4c3)ncc21
Response: true

Query: Is 30% strictly greater than the molecule's reported kinase still bound, per cent of control? molecule: O=C1NC(=S)S/C1=C\c1ccc(-c2cncc3ccccc23)o1
Response: true

Query: Is 30% strictly greater than the molecule's reported kinase still bound, per cent of control? molecule: COc1cc(N2CCN(C)CC2)ccc1Nc1ncc2c(n1)N(C)c1sccc1C(=O)N2C
Response: false

Query: Is 30% strictly greater than the molecule's reported kinase still bound, per cent of control? molecule: COc1cc(N2CCN(C)CC2)ccc1Nc1ncc2c(n1)N1CCC[C@H]1CC(=O)N2
Response: false

Query: Is 30% strictly greater than the molecule's reported kinase still bound, per cent of control? molecule: COc1cc(N2CCN(C)CC2)ccc1Nc1ncc2c(n1)N(C)c1ccccc1N(C)C2=O
Response: false

Query: Is 30% strictly greater than the molecule's reported kinase still bound, per cent of control? molecule: NS(=O)(=O)c1ccc(-c2ccc(/C=C3\C(=O)Nc4ccccc43)o2)cc1
Response: true

Query: Is 30% strictly greater than the molecule's reported kinase still bound, per cent of control? molecule: CN1CCN(c2ccc(C(=O)Nc3ncc4c(n3)N(C)c3ccccc3C(=O)N4C)cc2)CC1
Response: false

Query: Is 30% strictly greater than the molecule's reported kinase still bound, per cent of control? molecule: N=C1NC(=O)/C(=C/c2ccc(-c3cncc4ccccc34)o2)S1
Response: true

Query: Is 30% strictly greater than the molecule's reported kinase still bound, per cent of control? molecule: CN1C(=O)c2ccccc2N(C)c2nc(NS(=O)(=O)c3ccc(N)cc3)ncc21
Response: false
